- Protocol notes: Ex vivo biodistribution in mice with MM1S tumor xenografts
- Study conditions: both sexes, NSG, mouse, brain, 80 µCi, 90 min p.i.; MM1S xenograft mice; read-out: uptake in brain
Observation type: tissue uptake at 1.5 h
Answer as a quantity: numeral, then unit.

Req: Param item = CC[C@H](C)[C@@H]1NC(=O)[C@@H]2CCCN2C(=O)[C@H](Cc2ccccc2)NC(=O)[C@H](CC(=O)O)NC(=O)[C@H](C)NC(=O)[C@@H]2CSCc3cc(cc(c3)CSC[C@H](NC(=O)[C@H](C)NC(=O)CCOCCOCCOCCNC(=O)CN3CCN(CC(=O)O)CCN(CC(=O)O)CC3)C(=O)N[C@@H](C(C)C)C(=O)N3CCC[C@H]3C(=O)N2)CSC[C@@H](C(N)=O)NC(=O)[C@H](Cc2ccc(O)cc2)NC(=O)[C@H](Cc2c[nH]c3ccccc23)NC1=O [[^68Ga]Ga‐AJ206, metal not drawn] ; retrieve measured tissue uptake at 1.5 h.
Resp: 0.03 %ID/g

====

- Protocol notes: Ex vivo biodistribution in mice with RPMI tumor xenografts
- Study conditions: both sexes, NSG, mouse, tumor/muscle, 50 uCi, total radioactivity; 60 min p.i.; RPMI xenograft mice; read-out: Tumor/Muscle ratio
Observation type: tissue to tissue ratio at 1 h
// response body must contain only the number

Req: Param item = CC[C@H](C)[C@@H]1NC(=O)[C@@H]2CCCN2C(=O)[C@H](Cc2ccccc2)NC(=O)[C@H](CC(=O)O)NC(=O)[C@H](C)NC(=O)[C@@H]2CSCc3cc(cc(c3)CSC[C@H](NC(=O)[C@H](C)NC(=O)CCOCCOCCOCCNC(=O)CN3CCN(CC(=O)O)CCN(CC(=O)O)CC3)C(=O)N[C@@H](C(C)C)C(=O)N3CCC[C@H]3C(=O)N2)CSC[C@@H](C(N)=O)NC(=O)[C@H](Cc2ccc(O)cc2)NC(=O)[C@H](Cc2c[nH]c3ccccc23)NC1=O [[^68Ga]Ga‐AJ206, metal not drawn] ; retrieve measured tissue to tissue ratio at 1 h.
Resp: 3.72

====

- Protocol notes: Ex vivo biodistribution in mice with MM1S tumor xenografts
- Study conditions: both sexes, NSG, mouse, heart, 80 µCi, total radioactivity, 60 min p.i.; MM1S xenograft mice; read-out: uptake in heart
- Procedure: […] Mice with 100–200 mm^3 tumor volume were used for ex vivo biodistribution studies. For radiotracer pharmacokinetics studies, mice with MOLP8 tumor xenografts received ≈80 µCi (2.96 MBq) [^68Ga]Ga‐AJ206 and were sacrificed at pre‐determined time points (5, 30, 60 and 120 min). Similarly, for dosimetry study, mice with MM1S tumor xenografts received ≈80 µCi (2.96 MBq) of [^68Ga]Ga‐AJ206 and were sacrificed at pre‐determined time points (5, 30, 60, 90 and 120 min). […]
Observation type: tissue uptake at 1 h
Answer as a quantity: numeral, then unit.

Req: Param item = CC[C@H](C)[C@@H]1NC(=O)[C@@H]2CCCN2C(=O)[C@H](Cc2ccccc2)NC(=O)[C@H](CC(=O)O)NC(=O)[C@H](C)NC(=O)[C@@H]2CSCc3cc(cc(c3)CSC[C@H](NC(=O)[C@H](C)NC(=O)CCOCCOCCOCCNC(=O)CN3CCN(CC(=O)O)CCN(CC(=O)O)CC3)C(=O)N[C@@H](C(C)C)C(=O)N3CCC[C@H]3C(=O)N2)CSC[C@@H](C(N)=O)NC(=O)[C@H](Cc2ccc(O)cc2)NC(=O)[C@H](Cc2c[nH]c3ccccc23)NC1=O [[^68Ga]Ga‐AJ206, metal not drawn] ; retrieve measured tissue uptake at 1 h.
Resp: 0.29 %ID/g

====

- Protocol notes: Ex vivo biodistribution in mice with RPMI tumor xenografts
- Study conditions: both sexes, NSG, mouse, lung, 50 µCi, 60 min p.i.; RPMI xenograft mice; read-out: uptake in lung
Observation type: tissue uptake at 1 h (%ID/g)
// return numeric value only (unit: %ID/g, not printed)

Req: Param item = CC[C@H](C)[C@@H]1NC(=O)[C@@H]2CCCN2C(=O)[C@H](Cc2ccccc2)NC(=O)[C@H](CC(=O)O)NC(=O)[C@H](C)NC(=O)[C@@H]2CSCc3cc(cc(c3)CSC[C@H](NC(=O)[C@H](C)NC(=O)CCOCCOCCOCCNC(=O)CN3CCN(CC(=O)O)CCN(CC(=O)O)CC3)C(=O)N[C@@H](C(C)C)C(=O)N3CCC[C@H]3C(=O)N2)CSC[C@@H](C(N)=O)NC(=O)[C@H](Cc2ccc(O)cc2)NC(=O)[C@H](Cc2c[nH]c3ccccc23)NC1=O [[^68Ga]Ga‐AJ206, metal not drawn] ; retrieve measured tissue uptake at 1 h.
Resp: 1

====

- Protocol notes: Ex vivo biodistribution in mice with MM1S tumor xenografts
- Study conditions: both sexes, NSG, mouse, bladder, 80 µCi, 90 min p.i.; MM1S xenograft mice; read-out: uptake in bladder
Observation type: tissue uptake at 1.5 h (%ID/g)
// return numeric value only (unit: %ID/g, not printed)

Req: Param item = CC[C@H](C)[C@@H]1NC(=O)[C@@H]2CCCN2C(=O)[C@H](Cc2ccccc2)NC(=O)[C@H](CC(=O)O)NC(=O)[C@H](C)NC(=O)[C@@H]2CSCc3cc(cc(c3)CSC[C@H](NC(=O)[C@H](C)NC(=O)CCOCCOCCOCCNC(=O)CN3CCN(CC(=O)O)CCN(CC(=O)O)CC3)C(=O)N[C@@H](C(C)C)C(=O)N3CCC[C@H]3C(=O)N2)CSC[C@@H](C(N)=O)NC(=O)[C@H](Cc2ccc(O)cc2)NC(=O)[C@H](Cc2c[nH]c3ccccc23)NC1=O [[^68Ga]Ga‐AJ206, metal not drawn] ; retrieve measured tissue uptake at 1.5 h.
Resp: 1.23

====

- Protocol notes: Ex vivo biodistribution in mice with MOLP8 tumor xenografts
- Set-up: species or system NSG mice
- Study conditions: both sexes, NSG, mouse, tumor/muscle, 80 uCi, total radioactivity, 5 min p.i.; MOLP8 xenograft mice; read-out: Tumor/muscle ratio
Observation type: tissue to tissue ratio at 5 min
// response body must contain only the number

Req: Param item = CC[C@H](C)[C@@H]1NC(=O)[C@@H]2CCCN2C(=O)[C@H](Cc2ccccc2)NC(=O)[C@H](CC(=O)O)NC(=O)[C@H](C)NC(=O)[C@@H]2CSCc3cc(cc(c3)CSC[C@H](NC(=O)[C@H](C)NC(=O)CCOCCOCCOCCNC(=O)CN3CCN(CC(=O)O)CCN(CC(=O)O)CC3)C(=O)N[C@@H](C(C)C)C(=O)N3CCC[C@H]3C(=O)N2)CSC[C@@H](C(N)=O)NC(=O)[C@H](Cc2ccc(O)cc2)NC(=O)[C@H](Cc2c[nH]c3ccccc23)NC1=O [[^68Ga]Ga‐AJ206, metal not drawn] ; retrieve measured tissue to tissue ratio at 5 min.
Resp: 2.94

====

- Protocol notes: Ex vivo biodistribution in mice with U266 tumor xenografts
- Study conditions: both sexes, NSG, mouse, spleen, 50 µCi; 60 min p.i.; U266 xenograft mice; read-out: uptake in spleen
Observation type: tissue uptake at 1 h (%ID/g)
// return numeric value only (unit: %ID/g, not printed)

Req: Param item = CC[C@H](C)[C@@H]1NC(=O)[C@@H]2CCCN2C(=O)[C@H](Cc2ccccc2)NC(=O)[C@H](CC(=O)O)NC(=O)[C@H](C)NC(=O)[C@@H]2CSCc3cc(cc(c3)CSC[C@H](NC(=O)[C@H](C)NC(=O)CCOCCOCCOCCNC(=O)CN3CCN(CC(=O)O)CCN(CC(=O)O)CC3)C(=O)N[C@@H](C(C)C)C(=O)N3CCC[C@H]3C(=O)N2)CSC[C@@H](C(N)=O)NC(=O)[C@H](Cc2ccc(O)cc2)NC(=O)[C@H](Cc2c[nH]c3ccccc23)NC1=O [[^68Ga]Ga‐AJ206, metal not drawn] ; retrieve measured tissue uptake at 1 h.
Resp: 0.24

====

- Protocol notes: Ex vivo biodistribution in mice with U266 tumor xenografts
- Study conditions: both sexes, NSG, mouse, tumor/blood, 50 uCi, total radioactivity; 60 min p.i.; U266 xenograft mice; read-out: Tumor/Blood ratio
Observation type: tissue to tissue ratio at 1 h
// response body must contain only the number

Req: Param item = CC[C@H](C)[C@@H]1NC(=O)[C@@H]2CCCN2C(=O)[C@H](Cc2ccccc2)NC(=O)[C@H](CC(=O)O)NC(=O)[C@H](C)NC(=O)[C@@H]2CSCc3cc(cc(c3)CSC[C@H](NC(=O)[C@H](C)NC(=O)CCOCCOCCOCCNC(=O)CN3CCN(CC(=O)O)CCN(CC(=O)O)CC3)C(=O)N[C@@H](C(C)C)C(=O)N3CCC[C@H]3C(=O)N2)CSC[C@@H](C(N)=O)NC(=O)[C@H](Cc2ccc(O)cc2)NC(=O)[C@H](Cc2c[nH]c3ccccc23)NC1=O [[^68Ga]Ga‐AJ206, metal not drawn] ; retrieve measured tissue to tissue ratio at 1 h.
Resp: 0.83

====

- Protocol notes: Ex vivo biodistribution in mice with MM1S tumor xenografts
- Study conditions: female, NSG, mouse, ovary, 80 µCi, 90 min p.i.; MM1S xenograft mice; read-out: uptake in ovary
Observation type: tissue uptake at 1.5 h (%ID/g)
// return numeric value only (unit: %ID/g, not printed)

Req: Param item = CC[C@H](C)[C@@H]1NC(=O)[C@@H]2CCCN2C(=O)[C@H](Cc2ccccc2)NC(=O)[C@H](CC(=O)O)NC(=O)[C@H](C)NC(=O)[C@@H]2CSCc3cc(cc(c3)CSC[C@H](NC(=O)[C@H](C)NC(=O)CCOCCOCCOCCNC(=O)CN3CCN(CC(=O)O)CCN(CC(=O)O)CC3)C(=O)N[C@@H](C(C)C)C(=O)N3CCC[C@H]3C(=O)N2)CSC[C@@H](C(N)=O)NC(=O)[C@H](Cc2ccc(O)cc2)NC(=O)[C@H](Cc2c[nH]c3ccccc23)NC1=O [[^68Ga]Ga‐AJ206, metal not drawn] ; retrieve measured tissue uptake at 1.5 h.
Resp: 0.32
